# SUBJECT_OF_TEST: Human recombinant MMP-9 (Homo sapiens, UniProt P14780)
# Sequence (P14780 107-707 limits assumed): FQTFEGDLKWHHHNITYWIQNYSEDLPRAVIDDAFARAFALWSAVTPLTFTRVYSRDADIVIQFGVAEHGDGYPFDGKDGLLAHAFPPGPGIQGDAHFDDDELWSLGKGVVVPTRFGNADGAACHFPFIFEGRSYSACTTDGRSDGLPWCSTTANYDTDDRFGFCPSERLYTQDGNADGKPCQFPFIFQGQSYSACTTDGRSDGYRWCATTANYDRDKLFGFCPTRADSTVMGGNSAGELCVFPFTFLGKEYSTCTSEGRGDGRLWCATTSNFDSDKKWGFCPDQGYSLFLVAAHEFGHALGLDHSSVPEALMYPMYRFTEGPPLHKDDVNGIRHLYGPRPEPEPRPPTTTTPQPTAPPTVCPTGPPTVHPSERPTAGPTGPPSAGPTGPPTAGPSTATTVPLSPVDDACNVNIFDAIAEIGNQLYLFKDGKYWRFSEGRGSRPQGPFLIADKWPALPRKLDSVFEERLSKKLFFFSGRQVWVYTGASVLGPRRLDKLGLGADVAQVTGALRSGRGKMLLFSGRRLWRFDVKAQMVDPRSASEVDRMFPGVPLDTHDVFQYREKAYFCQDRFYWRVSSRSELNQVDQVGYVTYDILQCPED
# ASSAY_INFO: In vitro MMP inhibition analysis (fluorogenic peptide substrate), MMP-9
# CONDITION_DETAILS: human recombinant enzyme; 4 μM substrate (A); apparent Ki without substrate correction
pKi: −log10 of the molar value.
MEASUREMENT_TYPE: pKi

{"columns": ["COMPOUND", "pKi"],
 "data": [
  ["O=C(NO)C1(S(=O)(=O)c2ccc(-c3ccc(OC(F)(F)C(F)F)cc3)nc2)CCOCC1 [Example 47]", 8.82]
]}

A. O=C(Cc1ccc(-c2ccc(S(=O)(=O)C3(C(=O)NO)CCOCC3)cn2)cc1)N1CCCCC1 [Example 72]
B. O=C(NO)C1(S(=O)(=O)c2ccc(-c3ccc(OCC(F)(F)F)cc3)nc2)CCOCC1 [Example 46]
Prompt line: Lower value for measured pKi? Options: A , B Pick one and reply with its label.
Response line: A

---

# SUBJECT_OF_TEST: Human recombinant MMP-14 (Homo sapiens)
# Construct: The catalytic domain enzyme was expressed in E. Coli inclusion bodies
# ASSAY_INFO: In vitro MMP inhibition analysis (fluorogenic peptide substrate), MMP-14
# CONDITION_DETAILS: human recombinant catalytic domain; 4 μM substrate (A); apparent Ki without substrate correction
pKi: −log10 of the molar value.
MEASUREMENT_TYPE: pKi

{"columns": ["COMPOUND", "SUBJECT_OF_TEST", "pKi"],
 "data": [
  ["O=C(NO)C1(S(=O)(=O)c2ccc3nc(-n4cnc(-c5ccccc5)c4)sc3c2)CCOCC1", "Human recombinant MMP-14 (Homo sapiens)", 5.42],
  ["O=C(NO)C1(S(=O)(=O)c2ccc(-c3ccc(OC(F)(F)C(F)F)cc3)nc2)CCOCC1 [Example 47]", "Human recombinant MMP-14 (Homo sapiens)", 5.67]
]}

1. O=C(NO)C1(S(=O)(=O)c2ccc(-c3ccc(OC(F)(F)C(F)F)cc3)nc2)CCOCC1 [Example 48]
2. O=C(NO)C1(S(=O)(=O)c2ccc3nc(N4CCC(Oc5ccc(OC(F)(F)F)cc5)CC4)sc3c2)CCOCC1
Prompt line: Identify the entry with the larger pKi. Options: 1 and 2 Pick one and reply with its label.
Response line: 2

---

# SUBJECT_OF_TEST: Human recombinant MMP-9 (Homo sapiens, UniProt P14780)
# ASSAY_INFO: In vitro MMP inhibition analysis (fluorogenic peptide substrate), MMP-9
# CONDITION_DETAILS: human recombinant enzyme; 4 μM substrate (A); apparent Ki without substrate correction
# Experimental: Several compounds and salts were analyzed in an in vitro assay to determine their ability to inhibit the MMP cleavage of peptide substrates. Inhibition constant (Ki) were calculated from the assayed compound-MMP interactions. […] The assays from which the Ki determinations were made were performed as follows. […] In the absence of MMP inhibitory activity, substrate (A) was cleaved at the Gly-Leu bond resulting in an increase of relative fluorescence. […]
pKi: −log10 of the molar value.
MEASUREMENT_TYPE: pKi

Reference set (5 entries):
{"columns": ["STRUCTURE_AS_SMILES", "pKi"],
 "data": [
  ["O=C(NO)C1(S(=O)(=O)c2ccc3nc(N4CCC(Oc5ccc(OC(F)(F)F)cc5)CC4)sc3c2)CCOCC1", 7.16],
  ["O=C(NO)C1(S(=O)(=O)c2ccc3nc(-c4ccsc4)sc3c2)CCOCC1", 7.39],
  ["COCCN1CCC(C(=O)NO)(S(=O)(=O)c2ccc3nc(-c4ccc(OC(F)(F)F)cc4)sc3c2)CC1", 9.20],
  ["O=C(NO)C1(S(=O)(=O)c2ccc3nc(-c4ccc5c(c4)OCO5)sc3c2)CCOCC1", 8.14],
  ["O=C(NO)C1(S(=O)(=O)c2ccc3nc(-c4ccc(C(F)(F)F)cc4)sc3c2)CCOCC1", 9.02]
]}

P. O=C(NO)C1(S(=O)(=O)c2ccc3nc(-c4ccc(SC(F)(F)F)cc4)sc3c2)CCOCC1
Q. CCCCOc1ccc(-c2ccc(S(=O)(=O)C3(C(=O)NO)CCOCC3)s2)cc1
Prompt line: Identify the entry with the larger pKi. Options: P and Q Pick one and reply with its label.
Response line: P

---

# SUBJECT_OF_TEST: Human recombinant MMP-9 (Homo sapiens)
# Construct: made in house; host or cells: MMP-9-transfected HT1080 cells (spent media)
# ASSAY_INFO: In vitro MMP inhibition analysis (fluorogenic peptide substrate), MMP-9
# Assay type: biochemical
# CONDITION_DETAILS: human recombinant enzyme; 4 μM substrate (A); apparent Ki without substrate correction
MEASUREMENT_TYPE: Ki (nM)

Reference set (5 entries):
{"columns": ["COMPOUND", "Ki [nM]"],
 "data": [
  ["CCCCc1ccc(C(=O)C2CCN(c3nc4ccc(S(=O)(=O)C5(C(=O)NO)CCOCC5)cc4s3)CC2)s1", 837],
  ["CCCCNC(=O)Cc1ccc(-c2ccc(S(=O)(=O)C3(C(=O)NO)CCOCC3)cn2)cc1", 2220],
  ["CCCCN(C)C(=O)Cc1ccc(-c2ccc(S(=O)(=O)C3(C(=O)NO)CCOCC3)cn2)cc1", 4930],
  ["O=C(NO)C1(S(=O)(=O)c2ccc(-c3ccc(OC(F)(F)F)cc3)nc2)CCOCC1", 4.26],
  ["O=C(NO)C1(S(=O)(=O)c2ccc3c(c2)sc2nc(-c4ccccc4)cn23)CCOCC1", 2040]
]}

I. O=C(NO)C1(S(=O)(=O)c2ccc(-c3ccc(CCC(F)(F)F)cc3)nc2)CCOCC1
II. O=C(NO)C1(S(=O)(=O)c2ccc3nc(-c4ccc(OC(F)(F)F)cc4)sc3c2)CCOCC1
III. CC(C)CN(C)C(=O)c1ccc(-c2ccc(S(=O)(=O)C3(C(=O)NO)CCOCC3)cn2)cc1
Prompt line: Thanks in advance: please rank these 3 entries by Ki, highest to lowest. Provide your answer as the labels ordered per the instruction.
Response line: III, I, II

1. O=C(NO)C1(S(=O)(=O)c2ccc3nc(-c4ccc(F)cc4F)sc3c2)CCOCC1
2. O=C(NO)C1(S(=O)(=O)c2ccc3nc(-n4cnc(-c5ccccc5)c4)sc3c2)CCOCC1
3. CCOc1ccc(-c2nc3ccc(S(=O)(=O)C4(C(=O)NO)CCOCC4)cc3s2)cc1
Prompt line: Please put the entries in order of rising Ki. Provide your answer as the labels ordered per the instruction.
Response line: 3, 1, 2

A. O=C(NO)C1(S(=O)(=O)c2ccc(-c3ccc(CCC(F)(F)C(F)(F)F)cc3)nc2)CCOCC1
B. CN(C(=O)c1ccc(-c2ccc(S(=O)(=O)C3(C(=O)NO)CCOCC3)cn2)cc1)c1ccc(OC(F)(F)F)cc1
Prompt line: Lower value for measured Ki? Options: A , B Pick one and reply with its label.
Response line: A
(A: 8.93 nM, B: 3400 nM)

---

# SUBJECT_OF_TEST: Human recombinant MMP-13 (Homo sapiens, UniProt P45452)
# ASSAY_INFO: In vitro MMP inhibition analysis (fluorogenic peptide substrate), MMP-13
# CONDITION_DETAILS: human recombinant enzyme; 4 μM substrate (A); apparent Ki without substrate correction
pKi: −log10 of the molar value.
MEASUREMENT_TYPE: pKi

{"columns": ["MOLECULE", "MEASURED_RESULT"],
 "data": [
  ["O=C(NO)C1(S(=O)(=O)c2ccc(-c3ccc(CCC(F)(F)F)cc3)nc2)CCOCC1", 9.14],
  ["O=C(Cc1ccc(-c2ccc(S(=O)(=O)C3(C(=O)NO)CCOCC3)cn2)cc1)N1CCCCC1", 8.80],
  ["O=C(NO)C1(S(=O)(=O)c2ccc(-c3ccc(OC(F)(F)C(F)F)cc3)nc2)CCOCC1 [Example 48]", 9.72],
  ["O=C(NO)C1(S(=O)(=O)c2ccc3nc(-c4cccc(C(F)(F)F)c4)sc3c2)CCOCC1", 6.75],
  ["O=C(NO)C1(S(=O)(=O)c2ccc(-c3ccc(C(F)(F)F)cn3)s2)CCOCC1", 7.99],
  ["O=C(NO)C1(S(=O)(=O)c2ccc3nc(-c4ccc(SC(F)(F)F)cc4)sc3c2)CCOCC1", 9.53],
  ["O=C(NO)C1(S(=O)(=O)c2ccc(-c3ccc(OC(F)(F)C(F)F)cc3)nc2)CCOCC1 [Example 47]", 9.51],
  ["O=C(NO)C1(S(=O)(=O)c2ccc3nc(-c4ccc(F)c(F)c4)sc3c2)CCOCC1", 8.81]
]}

A. O=C(NO)C1(S(=O)(=O)c2ccc3nc(-n4cnc(-c5ccccc5)c4)sc3c2)CCOCC1
B. O=C(NO)C1(S(=O)(=O)c2ccc3nc(-c4ccc(F)cc4F)sc3c2)CCOCC1
C. CCCCOc1ccc(-c2ccc(S(=O)(=O)C3(C(=O)NO)CCOCC3)s2)cc1
D. CCc1ccc(-c2nc3ccc(S(=O)(=O)C4(C(=O)NO)CCOCC4)cc3s2)cc1
Prompt line: Thanks in advance: please rank these 4 entries by pKi, highest to lowest. Provide your answer as the labels ordered per the instruction.
Response line: C, D, B, A
(C: 9.90, D: 9.47, B: 8.53, A: 7.66)
